Reference source for all entries: ChEMBL document CHEMBL5120830

target: Aldo-keto reductase family 1 member C2 (Homo sapiens)
Sequence (whole entry): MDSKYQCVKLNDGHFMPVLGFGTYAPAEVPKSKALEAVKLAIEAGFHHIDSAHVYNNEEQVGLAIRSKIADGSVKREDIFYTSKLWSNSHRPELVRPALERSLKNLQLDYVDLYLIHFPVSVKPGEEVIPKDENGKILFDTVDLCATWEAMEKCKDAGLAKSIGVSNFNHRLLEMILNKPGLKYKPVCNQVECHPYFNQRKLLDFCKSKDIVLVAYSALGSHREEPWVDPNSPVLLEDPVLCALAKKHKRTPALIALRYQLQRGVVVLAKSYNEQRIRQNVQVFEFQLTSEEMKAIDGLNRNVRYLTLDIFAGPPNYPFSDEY
assay_name: Inhibition of recombinant human AKR1C2 transfected in Escherichia coli BL21 (DE) assessed as reduction in NADPH production at 100 uM using S-tetralol as substrate by fluorescence based analysis relative to control
Threshold rule: inhibition greater than or equal to 40% is satisfied; below that, not satisfied.

{"substance_smiles": "COc1ccc(Cn2nnc(O)c2C(=O)Nc2cccc(-c3cccc(O)c3)c2)cc1", "discrete_label": "not satisfied"}
{"substance_smiles": "COc1ccc(Cn2nnc(O)c2C(=O)Nc2cc(C(F)(F)F)cc(C(F)(F)F)c2)cc1", "discrete_label": "not satisfied"}
{"substance_smiles": "COc1ccc(Cn2nnc(O)c2C(=O)Nc2cccc(C(F)(F)F)c2)cc1", "discrete_label": "satisfied"}
{"substance_smiles": "COc1ccc(Cn2nnc(O)c2C(=O)Nc2cccc(Oc3ccccc3)c2)cc1", "discrete_label": "satisfied"}
{"substance_smiles": "COc1ccc(Cn2nnc(O)c2C(=O)Nc2cccc(-c3ccccc3)c2)cc1", "discrete_label": "not satisfied"}
{"substance_smiles": "COc1ccc(Cn2nnc(O)c2C(=O)Nc2cccc(-c3ccc(O)cc3)c2)cc1", "discrete_label": "not satisfied"}
{"substance_smiles": "COc1ccc(Cc2onc(O)c2C(=O)Nc2cccc(-c3ccccc3)c2)cc1", "discrete_label": "not satisfied"}
{"substance_smiles": "COc1ccc(Cn2nnc(O)c2C(=O)Nc2ccc(Oc3ccccc3)cc2)cc1", "discrete_label": "satisfied"}
{"substance_smiles": "COc1ccc(Cn2nnc(O)c2C(=O)Nc2cccc(-c3cccc(OC)c3)c2)cc1", "discrete_label": "satisfied"}
